Reported IC50 values follow for various molecules
- Assayed target: hα2A receptor (Homo sapiens)
- Construct: expressed in transfected cells; host or cells: CHO cells, stably transfected; membrane preparation
- Sequence (P08913 1-465): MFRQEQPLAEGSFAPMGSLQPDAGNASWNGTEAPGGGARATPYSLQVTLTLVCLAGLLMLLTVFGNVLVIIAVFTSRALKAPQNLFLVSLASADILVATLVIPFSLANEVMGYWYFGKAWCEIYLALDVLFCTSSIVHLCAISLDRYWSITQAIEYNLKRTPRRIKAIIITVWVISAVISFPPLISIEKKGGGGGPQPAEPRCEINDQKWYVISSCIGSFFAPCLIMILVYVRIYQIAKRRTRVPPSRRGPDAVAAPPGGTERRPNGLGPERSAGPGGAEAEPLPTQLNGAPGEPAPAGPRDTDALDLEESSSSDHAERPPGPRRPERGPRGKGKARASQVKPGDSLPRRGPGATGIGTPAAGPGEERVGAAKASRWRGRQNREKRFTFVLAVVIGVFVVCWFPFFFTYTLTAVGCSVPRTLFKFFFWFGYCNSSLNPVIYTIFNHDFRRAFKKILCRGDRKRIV
- Assay procedure: Radioligand binding experiment for α2A-adrenoceptor ([3H]raulwolscine, CHO cell membranes)
- Conditions used: [3H]raulwolscine binding, read-out: h-α2A pIC50 (converted)
Express it in nM; write the number only.

Prompt: Report measured IC50; entry is COc1cccc(Cn2ccnc(NC3CCN(C/C(C)=C/c4ccccc4)CC3)c2=O)c1 [3-10]
Completion: 79.4

Prompt: Report measured IC50; entry is C/C(=C\c1ccccc1)CN1CCC(Nc2nccn(Cc3cnc(C)s3)c2=O)CC1 [6-8]
Completion: 158

Prompt: Report measured IC50; entry is CC(=O)N1CCN(C(=O)Cn2ccnc(NC3CCN(C/C(C)=C/c4ccccc4)CC3)c2=O)CC1 [2-22]
Completion: 126

Prompt: Report measured IC50; entry is C/C(=C\c1ccccc1)CN1CCC(Nc2nccn(CC(=O)N3CCC(O)(c4ccccc4)CC3)c2=O)CC1 [2-14]
Completion: 126
